We begin with a simple list: items and their reported melting point.
testReadout: melting point

compound="O=C(Cn1nc(-c2ccncc2)oc1=S)Nc1ccccn1 [Compound 7a]" testreadout="melting point" observedmeasurement="216 to 218 °C"
compound="Cc1ccc(NC(=O)Cn2nc(-c3ccncc3)n(N)c2=S)cc1 [Compound 6b]" testreadout="melting point" observedmeasurement="237 to 238 °C"
compound="O=C(Cn1nc(-c2ccncc2)oc1=S)Nc1nccs1 [Compound 7c]" testreadout="melting point" observedmeasurement="244 to 246 °C"
compound="Cc1cnc(NC(=O)Cn2nc(-c3ccncc3)n(N)c2=S)s1 [Compound 6v]" testreadout="melting point" observedmeasurement="250 to 252 °C"
compound="Cc1cccc2sc(NC(=O)Cn3nc(-c4ccncc4)n(N)c3=S)nc12 [Compound 6t]" testreadout="melting point" observedmeasurement="243 to 245 °C"
compound="Nn1c(-c2ccncc2)nn(CC(=O)Nc2cc(C(F)(F)F)ccc2Cl)c1=S [Compound 6k]" testreadout="melting point" observedmeasurement="184 to 186 °C"
compound="Nn1c(-c2ccncc2)nn(CC(=O)Nc2ccccn2)c1=S [Compound 6o]" testreadout="melting point" observedmeasurement="212 to 214 °C"
compound="Cc1cccc(NC(=O)Cn2nc(-c3ccncc3)n(N)c2=S)c1 [Compound 6i]" testreadout="melting point" observedmeasurement="225 to 227 °C"
compound="Nn1c(-c2ccncc2)nn(CC(=O)Nc2ccc(C(F)(F)F)cc2)c1=S [Compound 6n]" testreadout="melting point" observedmeasurement="227 to 229 °C"

---

biological target: UniProt P9WGR1; experiment: Mtb InhA enzyme inhibition assay (fluorescence based); type: biochemical
Sequence (P9WGR1 whole entry, looked up): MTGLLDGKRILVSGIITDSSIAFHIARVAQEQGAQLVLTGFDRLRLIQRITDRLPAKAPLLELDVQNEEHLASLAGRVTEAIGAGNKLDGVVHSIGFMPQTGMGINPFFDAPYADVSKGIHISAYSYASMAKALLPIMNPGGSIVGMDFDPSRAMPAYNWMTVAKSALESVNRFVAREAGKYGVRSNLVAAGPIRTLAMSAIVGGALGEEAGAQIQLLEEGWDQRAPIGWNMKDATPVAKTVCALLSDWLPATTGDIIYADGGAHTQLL
testReadout: IC50

compoundstructurestring=Nn1c(-c2ccncc2)nn(CC(=O)Nc2ccc(Br)cc2F)c1=S observedmeasurement="6.15 µM"
compoundstructurestring=Cc1cnc(NC(=O)Cn2nc(-c3ccncc3)oc2=S)s1 observedmeasurement="67 µM"
compoundstructurestring=Cc1cccc(NC(=O)Cn2nc(-c3ccncc3)n(N)c2=S)c1 observedmeasurement="0.12 µM"
compoundstructurestring=Cc1cc(NC(=O)Cn2nc(-c3ccncc3)oc2=S)no1 observedmeasurement="24 µM"
compoundstructurestring=Cc1ccc(NC(=O)Cn2nc(-c3ccncc3)n(N)c2=S)cc1 observedmeasurement="0.09 µM"
compoundstructurestring=O=C(Cn1nc(-c2ccncc2)oc1=S)Nc1ncc([N+](=O)[O-])s1 observedmeasurement="82 µM"
compoundstructurestring=CCOc1ccc2nc(NC(=O)Cn3nc(-c4ccncc4)oc3=S)sc2c1 observedmeasurement="> 100 µM"

---

Measured melting point accompanies every entry in the list below.
testReadout: melting point

compoundstructurestring=Cc1cc(NC(=O)Cn2nc(-c3ccncc3)n(N)c2=S)no1 observedmeasurement="242 to 244 °C"
compoundstructurestring=Nn1c(-c2ccncc2)nn(CC(=O)Nc2cccc(Cl)c2)c1=S observedmeasurement="220 to 222 °C"
compoundstructurestring=Cc1ccc(NC(=O)Cn2nc(-c3ccncc3)n(N)c2=S)cc1C observedmeasurement="242 to 244 °C"
compoundstructurestring=Nn1c(-c2ccncc2)nn(CC(=O)Nc2nccs2)c1=S observedmeasurement="253 to 255 °C"
compoundstructurestring=Cc1cnc(NC(=O)Cn2nc(-c3ccncc3)oc2=S)s1 observedmeasurement="236 to 238 °C"
compoundstructurestring=Nn1c(-c2ccncc2)nn(CC(=O)Nc2ccc(Cl)cc2)c1=S observedmeasurement="218 to 220 °C"
compoundstructurestring=Nn1c(-c2ccncc2)nn(CC(=O)Nc2ccc(Br)cc2F)c1=S observedmeasurement="276 to 278 °C"
compoundstructurestring=Cc1cc(NC(=O)Cn2nc(-c3ccncc3)oc2=S)no1 observedmeasurement="232 to 234 °C"
compoundstructurestring=Nn1c(-c2ccncc2)nn(CC(=O)Nc2ccc(F)cc2)c1=S observedmeasurement="227 to 229 °C"
